The origin of these recorded values is patent US9149038B2.

pest or weed control at 140 g/ha values by entry
test system: Key Grass and Sedge Weeds as well as Grass Crops; experiment: Post-Emergent Test II: postemergent herbicidal activity, visual rating after 14 d (Table 8); format: in vivo; details: post-emergence, 336 h, yellow nutsedge (Cyperus esculentus), 140 g ai/ha, read-out: Visual Growth Reduction (%) 14 Days After Application CYPES

- molecule: "COC(=O)c1nc(-c2cc(F)c3c(c2)OC(F)(F)O3)c(F)c(N)c1Cl"
  pest or weed control at 140 g/ha: "0 to 29%"
- molecule: "Nc1nc(-c2ccc3c(c2F)OC(F)(F)O3)nc(C(=O)O)c1Cl"
  pest or weed control at 140 g/ha: "85 to 94%"
- molecule: "COC(=O)c1nc(-c2cc3c(cc2F)OCO3)nc(N)c1OC"
  pest or weed control at 140 g/ha: "0 to 29%"
- molecule: "COC(=O)c1nc(-c2cc3c(cc2OC)OC(F)(F)O3)cc(N)c1Cl"
  pest or weed control at 140 g/ha: "0 to 29%"
- molecule: "COC(=O)c1nc(-c2ccc3c(c2F)OC(F)(F)O3)cc(N)c1Cl"
  pest or weed control at 140 g/ha: "95 to 100%"
- molecule: "C=Cc1c(C(=O)O)nc(-c2cc3c(cc2F)OC(F)(F)O3)c(F)c1N"
  pest or weed control at 140 g/ha: "95 to 100%"
- molecule: "COc1c(N)nc(-c2cc3c(cc2F)OC(F)(F)O3)nc1C(=O)O"
  pest or weed control at 140 g/ha: "0 to 29%"
- molecule: "Nc1nc(-c2ccc3c(c2)OC(F)(F)O3)nc(C(=O)O)c1Cl"
  pest or weed control at 140 g/ha: "45 to 59%"
- molecule: "C=Cc1c(C(=O)O)nc(-c2ccc3c(c2)OC(F)(F)O3)c(F)c1N"
  pest or weed control at 140 g/ha: "95 to 100%"
- molecule: "COC(=O)c1nc(-c2ccc3c(c2)OC(F)(F)O3)c(F)c(N)c1OC"
  pest or weed control at 140 g/ha: "95 to 100%"
- molecule: "COc1c(C(=O)O)nc(-c2cc3c(cc2F)OC(F)(F)O3)c(F)c1N"
  pest or weed control at 140 g/ha: "45 to 59%"
- molecule: "COC(=O)c1nc(-c2c(F)cc3c(c2F)OC(F)(F)O3)cc(N)c1Cl"
  pest or weed control at 140 g/ha: "95 to 100%"
- molecule: "Cc1c(-c2ccc3c(c2)OC(F)(F)O3)nc(C(=O)O)c(Cl)c1N"
  pest or weed control at 140 g/ha: "0 to 29%"
- molecule: "Nc1cc(-c2ccc3c(c2Cl)OC(F)(F)O3)nc(C(=O)O)c1Cl"
  pest or weed control at 140 g/ha: "0 to 29%"
- molecule: "COC(=O)c1nc(-c2ccc(Br)c3c2OC(F)(F)O3)c(F)c(N)c1Cl"
  pest or weed control at 140 g/ha: "0 to 29%"
- molecule: "COC(=O)c1nc(-c2ccc3c(c2F)OC(F)(F)O3)nc(N)c1Cl"
  pest or weed control at 140 g/ha: "60 to 74%"
- molecule: "Nc1c(Cl)c(C(=O)O)nc(-c2ccc3c(c2F)OC(F)(F)O3)c1Cl"
  pest or weed control at 140 g/ha: "0 to 29%"
- molecule: "COC(=O)c1nc(-c2ccc3c(c2)OC(C)O3)c(F)c(N)c1Cl (stereo not drawn)"
  pest or weed control at 140 g/ha: "85 to 94%"
